Study System: T1, Full length recombinant HBcAg (rHBcAg) encompassing residues 1-183 (hepatitis B virus, UniProt P03146 1-183)
T1 construct: range 1-183; also called hepatitis B virus core antigen
T1 sequence (P03146 whole entry, the tested form may be a part): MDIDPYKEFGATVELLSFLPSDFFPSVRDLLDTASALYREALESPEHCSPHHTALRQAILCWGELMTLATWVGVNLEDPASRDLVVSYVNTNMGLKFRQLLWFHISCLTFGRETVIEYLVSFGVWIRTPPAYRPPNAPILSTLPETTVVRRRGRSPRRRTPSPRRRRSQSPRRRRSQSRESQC
Experiment: EIA, support-bound peptide, HBcAg 1.25 ug/ml
Lab note: anything with OD at or over 0.1 OD counts as T; the rest go in F.

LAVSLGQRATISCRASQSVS [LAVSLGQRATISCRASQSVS (SEQ. ID. No. 16)] | F

Could you please find out whether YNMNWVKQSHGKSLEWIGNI (also called Peptide # 27) [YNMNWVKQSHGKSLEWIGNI (SEQ. ID. No. 30)] has OD that meets 0.1 OD or exceeds it?
F

Could you please find out whether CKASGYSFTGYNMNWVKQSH (also called Peptide # 26) [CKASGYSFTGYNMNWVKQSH (SEQ. ID. No. 29)] has OD that meets 0.1 OD or exceeds it?
F

Could you please find out whether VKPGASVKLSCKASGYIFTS (also called Peptide # 2; Pept. #2) [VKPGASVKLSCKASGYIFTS (SEQ. ID. No. 5)] has OD that meets 0.1 OD or exceeds it?
T

Could you please find out whether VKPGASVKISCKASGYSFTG (also called Peptide # 25) [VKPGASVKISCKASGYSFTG (SEQ. ID. No. 28)] has OD that meets 0.1 OD or exceeds it?
F

Could you please find out whether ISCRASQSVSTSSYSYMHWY [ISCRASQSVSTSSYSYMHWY (SEQ. ID. No. 17)] has OD that meets 0.1 OD or exceeds it?
T
